System: HCT-116 colon
Experiment: NCI-60 one-dose screen, 48 h (100 = growth as untreated, 0 = no growth, -100 = all killed)
Conditions: 10 µM unless noted
Compounds without any hit were thinned out: in the full panel of roughly 83,000, 20% have a hit.
recorded endpoint: growth (%)
Give the quantity in %, number only.

Some solved entries appear below for comparison.
| compound | recorded endpoint | value measured |
| --- | --- | --- |
| O=C1NC(=C(Cl)Cl)/C(=N/S(=O)(=O)N2CCC(C3(C(F)(F)F)N=N3)CC2)N1 | growth | 95.4 |
| NC1N=C(SCC(=O)N2CCN(c3cc4c(cc3F)c(=O)c(C(=O)O)cn4C3CC3)CC2)NC(=O)/C1=C/c1ccc(Cl)cc1 (stereo not given) | growth | 101 |
| CCOC(=O)/C(C#N)=C1/C(=O)Nc2ccccc21 | growth | 98.4 |
| c1cc2[nH]ncc2cc1-c1nc2ccc3[nH]ncc3c2c2c1CCC2 | growth | 16.9 |

Proceed to the following item.
For reference, reported growth for O=S(=O)(NCCNc1nccc(-c2c(-c3cccc(O)c3)nc3sccn23)n1)c1ccc(F)cc1 stands at 45.9

====

Tested on: SK-MEL-5 melanoma
Assay: NCI-60 one-dose screen, 48 h (100 = growth as untreated, 0 = no growth, -100 = all killed)
Details: 10 µM unless noted
This is part of a sample that, as a whole, favours compounds with a hit. Of some 83,000 tested, about 20% had one in any assay.
Rule: growth below 60% gives Criterion met. Equal to or above 60% gives Criterion not met.

| compound | class label |
| --- | --- |
| Fc1ccc(Nc2ncnc3ccc(-c4cnc5[nH]ccc5c4)cc23)cc1Cl | Criterion met |
| C/C=C(\C)C(C(=O)NC1CCCCC1)N(C(=O)C1CCc2cc(F)ccc2O1)c1ccc(Cl)cc1 (stereo not given) | Criterion not met |
| COc1cc(Nc2ncccc2C(=O)NCc2cn(Cc3cccc(Oc4ccccc4)c3)nn2)cc(OC)c1 | Criterion met |
| CCCC(=O)Oc1ccc(/C(=C(\C)c2ccccc2)c2ccc(OCCN(CC)CC)cc2)cc1 | Criterion not met |
| COc1ccc(-c2[nH]nc(N)c2-c2cc(OC)c3c(c2)OCO3)cc1 | Criterion met |

Is 60% strictly greater than the compound's reported growth? compound: C=COC(=O)CCCCCCCCC
Criterion not met

Take the compound NC1=C(/C(N)=N/O)C(c2ccccc2)c2ccc3ccccc3c2O1 (stereo not given) and say whether its growth is less than 60%.
Criterion met

Does COc1cc(/C=C/C(=O)c2ccc(Nc3ncnc4cc(OC)c(OC)cc34)cc2)cc(OC)c1 have growth strictly under 60%?
Criterion not met

Item O=[N+]([O-])c1cccc(-c2nc3sccn3c2-c2ccnc(NCCCNS(=O)(=O)c3ccc(Cl)cc3)n2)c1 : growth beneath 60%, strictly?
Criterion met

====

Test system: OVCAR-3 ovarian
Assay: NCI-60 one-dose screen, 48 h (100 = growth as untreated, 0 = no growth, -100 = all killed)
Conditions: 10 µM unless noted
The panel holds about 83,000 compounds, 20% with a hit somewhere; the sample as a whole holds those more often.
Below, each entry is listed with its recorded growth.
Lab book: enter the figure in %, no units written.

See these solved cases before continuing.
| molecule | recorded endpoint | value measured |
| --- | --- | --- |
| O=C(Nc1ccc2c(c1)OCO2)C(=O)c1c[nH]c2cc(F)ccc12 | growth | 50.5 |
| COc1cc(-c2nn(-c3cccc(NC(=O)Nc4ccc(Cl)c(C(F)(F)F)c4)c3)cc2-c2ccncc2)ccc1Cl | growth | -12.4 |
| CN(C)CCOC(=O)Nc1ccccc1Cl | growth | 121 |

Now let's try a different one.
Sample Cc1ccc2[nH]c(=O)c3c(c2c1)Oc1ncn2nc(-c4ccco4)nc2c1C3c1ccc(Cl)cc1 (stereo not drawn) , system: OVCAR-3 ovarian. Its growth is 111
